target_entity: T1, human SIRPβ isoform 1 (human, UniProt O00241 30-148)
T1 construct: also called SIRPb; sirpb1
procedure_summary: SPR, Langmuir fit
Measured koff accompanies every entry in the list below.

| binder | koff [s⁻¹] |
| --- | --- |
| S16 (scFv, V domains shown, also called clone 16) VH: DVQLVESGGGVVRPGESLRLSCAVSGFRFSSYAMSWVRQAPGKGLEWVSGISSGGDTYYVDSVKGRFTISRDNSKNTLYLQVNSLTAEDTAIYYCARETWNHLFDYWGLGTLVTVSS VL: ALTQPASVSANLGETVKITCSGGDSSSHYYGWYQQKSPGSAPVTVIYSDDERPSDIPSRFSGSASGSTATLTITGVRVEDEAIYYCGAYDGSTYANTFGAGTTLTVL | 0.000113 |
| S56 (scFv, V domains shown, also called clone 56) VH: DVQLVESGGGVVRPGESLRLSCAASGFTFSSYAMSWVRQAPGKGLEWLAGISAGGSDTYYIDSVKGRFTISRDNSKNSLYLQVNSLTAEDTAVYYCARETWNHLFDYWGLGTLVTVSS VL: ALTQPASVSANPGETVKITCSGGGYYSTYYGWYQQKSPGSAPVTVIHSDDKRPSDIPSRFSGSASGSAATLTITGVRVEDEAVYYCAGYDGRTYINTFGAGTTLTVL | 0.000362 |
| S29 (scFv, V domains shown, also called clone 29) VH: DVQLVESGGGVVRPGESLRLSCAVSGFRFSSYAMSWVRQAPGKGLEWVSGISSDSDAYYVDSVKGRFTISRDNSKNTLYLQVNSLTAEDTAVYYCARETWNHLFDYWGLGTMVTVSS VL: ALTQPASVSANLGETVKITCSGGDSSSHYYGWFQQKSPGSAPVTLIYSDDERPSDIPSRFSGSASGSTATLTITGVRVEDEAIYFCGAYDGSTYTNTFGAGTTLTVL | 0.000279 |
